- subject_of_test: human NKp30 (human) (UniProt O14931)
- Sequence (O14931 19-135 limits assumed): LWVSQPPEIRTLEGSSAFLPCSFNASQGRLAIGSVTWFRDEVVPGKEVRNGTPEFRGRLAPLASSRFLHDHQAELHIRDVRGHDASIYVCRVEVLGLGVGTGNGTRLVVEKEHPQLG
- assay_text: BLI, immunoligand on anti-hFc tip
I'd appreciate it if you could supply Kd values for the items below.
Hi! Could you send only the number? It should be in nM, unit omitted.

GET /values?readout=Kd&item= ΔB7-H6_S3#16-SEED-PGLALA (bispecific antibody, part only; not given: SEED Fc chains and hu225 Fab, part only) chain, part: DLKVEMMAGGTQITPLNDNVTIFCNIFYSQPLNITLMGITWFWKSLTFDKEVKVFEFYGDHQEAFRPGAIVSPWRLKSGDASLRLPGIQLEEAGEYRCEVVVTPYKAQGTVQLEVVASPAS
28.7

Entry ΔB7-H6_S3#1-SEED-PGLALA (bispecific antibody, part only; not given: SEED Fc chains and hu225 EGFR Fab, part only) chain, part: DLKVEMMAGGTQITPLNDNVTIFCNIFYSQPLNITTMGITWFWKSLTFDKEVKVFEFWGDHQEAFRPGAIVSPWRLKSGDASLRLPGIQLEEAGEYRCEVVVTPYKAQGTVQLEVVASPAS has what Kd?
39.1

Entry ΔB7-H6_S3#25-SEED-PGLALA (bispecific antibody, part only; not given: SEED Fc chains and hu225 Fab, part only) chain, part: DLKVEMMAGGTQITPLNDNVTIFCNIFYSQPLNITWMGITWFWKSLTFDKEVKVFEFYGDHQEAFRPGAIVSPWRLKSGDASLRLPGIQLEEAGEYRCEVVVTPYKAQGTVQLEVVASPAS : reported Kd = ?
65.2

Which Kd reading was recorded for the binder ΔB7-H6_S3#15-SEED-PGLALA (bispecific antibody, part only; not given: SEED Fc chains and hu225 Fab, part only) chain, part: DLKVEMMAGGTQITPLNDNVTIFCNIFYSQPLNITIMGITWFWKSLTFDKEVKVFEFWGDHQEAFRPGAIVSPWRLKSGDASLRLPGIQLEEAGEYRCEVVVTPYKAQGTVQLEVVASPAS ?
12.4

What does the data say about its Kd? Entry: ΔB7-H6_S3#27-SEED-PGLALA (bispecific antibody, part only; not given: SEED Fc chains and hu225 EGFR Fab, part only) chain, part: DLKVEMMAGGTQITPLNDNVTIFCNIFYSQPLNITTMGITWFWKSLTFDKEVKVFEFWGDHQEAFRPGAIVSPWRLKSGDASLRLPGIQLEEAGEYRCEVIVTPYKAQGTVQLEVVASPAS
83

So what's the measured Kd for this one? ΔB7-H6_S3#24-SEED-PGLALA (bispecific antibody, part only; not given: SEED Fc chains and hu225 Fab, part only) chain, part: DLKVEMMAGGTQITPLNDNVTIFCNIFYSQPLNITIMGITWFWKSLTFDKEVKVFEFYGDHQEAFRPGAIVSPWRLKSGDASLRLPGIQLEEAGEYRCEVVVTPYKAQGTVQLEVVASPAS
14.9

Looking for the measured Kd of ΔB7-H6_S3#18-SEED-PGLALA (bispecific antibody, part only; not given: SEED Fc chains and hu225 Fab, part only) chain, part: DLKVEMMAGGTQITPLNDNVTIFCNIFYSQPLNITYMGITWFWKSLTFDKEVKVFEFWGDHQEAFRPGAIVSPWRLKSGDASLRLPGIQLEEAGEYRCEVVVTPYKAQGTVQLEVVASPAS , can you help?
9.06
